# Assay comment: Effect of food on plasma pharmacokinetics after single oral dose of SF2a/b (Example 2)
# Assay type: in vivo, human
# Cond: both sexes, human, plasma, oral, 200 mg, Treatment F: single 200 mg (SF2b), fasted; read-out: t1/2, term, Mean (converted)

[
  {
    "Molecule": "COc1cc(NC(C(=O)c2c[nH]c3ccc(OC(F)(F)F)cc23)c2ccc(Cl)cc2OC)cc(S(C)(=O)=O)c1 (stereo not shown)",
    "half-life / h": 205
  }
]

====

# Assay comment: Plasma pharmacokinetics with loading dose and weekly or twice weekly maintenance dosing, fed (Example 5)
# Type: in vivo, human
# Cond: human, plasma, oral, 150 mg, Panel IV (150 mg BID Days 1-2, then 150 mg Q3D/Q4D; SF2a/b, fed), Day 27; read-out: Mean AUClast (SD)
Measurement type: AUC(0-t) (µg·h/mL)

[
  {
    "Compound": "COc1cc(NC(C(=O)c2c[nH]c3ccc(OC(F)(F)F)cc23)c2ccc(Cl)cc2OC)cc(S(C)(=O)=O)c1 (stereo not shown)",
    "Measurement type": "AUC(0-t)",
    "Recorded measurement": 258
  }
]

====

# Assay comment: Plasma pharmacokinetics with loading dose and weekly or twice weekly maintenance dosing, fed (Example 5)
# Assay type: in vivo, human
# Cond: human, plasma, oral, 450 mg, Panel II (450 mg BID Days 1-2, then 450 mg Q3D/Q4D; SF2a/b, fed), Day 17; read-out: Mean Cmax (SD)
Measurement type: Cmax (µg/mL)

[
  {
    "Molecule": "COc1cc(NC(C(=O)c2c[nH]c3ccc(OC(F)(F)F)cc23)c2ccc(Cl)cc2OC)cc(S(C)(=O)=O)c1 (stereo not shown) [Compound (a)]",
    "Measurement type": "Cmax",
    "Unit tag": "µg/mL",
    "Recorded measurement": 3.94
  }
]

====

# Assay comment: Plasma pharmacokinetics with loading dose and weekly or twice weekly maintenance dosing, fed (Example 5)
# Type: in vivo, human
# Cond: human, plasma, oral, 300 mg, Panel III (150 mg BID Days 1-2, then 300 mg Q7D; SF2a/b, fed), Day 3; read-out: Median tmax (min-max)

[
  {
    "Compound": "COc1cc(NC(C(=O)c2c[nH]c3ccc(OC(F)(F)F)cc23)c2ccc(Cl)cc2OC)cc(S(C)(=O)=O)c1 (stereo not shown)",
    "Tmax, h": 5
  }
]

====

# Assay comment: Plasma pharmacokinetics with loading dose and weekly or twice weekly maintenance dosing, fed (Example 5)
# Assay type: in vivo, human
# Cond: human, plasma, oral, Panel III (150 mg BID Days 1-2, then 300 mg Q7D; SF2a/b, fed), Day 10; read-out: Mean Cmax (SD)
Measurement type: Cmax (ng/mL)

[
  {
    "Compound": "COc1cc(NC(C(=O)c2c[nH]c3ccc(OC(F)(F)F)cc23)c2ccc(Cl)cc2OC)cc(S(C)(=O)=O)c1 (stereo not shown)",
    "Recorded measurement": 2180
  }
]

====

# Assay comment: Effect of food on plasma pharmacokinetics after single oral dose of SF2a/b (Example 2)
# Format: in vivo, human
# Cond: both sexes, human, plasma, oral, 800 mg, 800 mg SF2b, standardized breakfast; linear mixed effects model (Table 5A); read-out: AUC∞, Geometric Mean Treatment E
# Method: The effect of food on the pharmacokinetics (PK) of Compound (a) was assessed in healthy participants after a single oral dose of SF2a/b, described in Example 1, administered at different dose levels in a randomized single dose, 2-period crossover study. […]
Measurement type: AUC(0-inf) (µg·h/mL)

[
  {
    "Compound": "COc1cc(NC(C(=O)c2c[nH]c3ccc(OC(F)(F)F)cc23)c2ccc(Cl)cc2OC)cc(S(C)(=O)=O)c1 (stereo not shown) [Compound (a)]",
    "Measurement type": "AUC(0-inf)",
    "Recorded measurement": 352
  }
]
